The reported measurements were obtained from ChEMBL document CHEMBL1926662.

- target_under_test: Trace amine-associated receptor 1 (Mus musculus)
- Sequence (Q923Y8 whole entry): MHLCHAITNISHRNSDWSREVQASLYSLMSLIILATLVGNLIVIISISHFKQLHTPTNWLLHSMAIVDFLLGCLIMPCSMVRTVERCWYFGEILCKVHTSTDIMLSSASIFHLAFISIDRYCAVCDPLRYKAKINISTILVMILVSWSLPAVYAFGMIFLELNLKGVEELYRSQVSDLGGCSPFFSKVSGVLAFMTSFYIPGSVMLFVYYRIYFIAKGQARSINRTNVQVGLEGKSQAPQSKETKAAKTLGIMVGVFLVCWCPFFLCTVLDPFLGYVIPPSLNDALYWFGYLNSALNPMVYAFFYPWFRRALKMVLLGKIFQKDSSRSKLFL
- protocol_text: Activation of mouse TAAR1 expressed in human HEK293 cells assessed as accumulation of cAMP after 15 mins
- Assay type: functional, cell-based
measured_endpoint: EC50 (nM)
Answers are plain numbers, in nM.

-- ask Looking for the measured EC50 of `CN[C@@H](C)Cc1ccccc1` , can you help?
-- reply 70

* * *

Exercise: for every item that follows, state its recorded EC50.
- target_under_test: Trace amine-associated receptor 1 (Homo sapiens, UniProt Q96RJ0)
- Sequence (Q96RJ0 whole entry): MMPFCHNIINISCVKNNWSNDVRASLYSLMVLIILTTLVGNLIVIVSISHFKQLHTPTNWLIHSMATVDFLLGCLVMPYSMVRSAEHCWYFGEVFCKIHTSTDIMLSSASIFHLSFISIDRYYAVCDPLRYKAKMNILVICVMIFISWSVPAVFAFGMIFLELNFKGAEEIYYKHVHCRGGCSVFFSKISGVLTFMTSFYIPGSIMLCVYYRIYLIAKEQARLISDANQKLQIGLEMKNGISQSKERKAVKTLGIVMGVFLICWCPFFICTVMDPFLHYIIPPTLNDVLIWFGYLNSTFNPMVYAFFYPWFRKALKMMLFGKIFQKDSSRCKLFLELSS
- protocol_text: Activation of human TAAR1 expressed in Syrian hamster AV12-664 cells co-expressing GalphaS protein assessed as accumulation of cAMP after 30 mins using cAMP XS EA/CL as substrate by luminescence method in presence of RX821002 and alprenolol
- Format: functional, cell-based
One number for each entry, in µM.

# structure_notation, measured_endpoint, endpoint_value
rows = [
    ("NCCc1ccccc1", "EC50", 0.106),
]

Would you kindly look at the next entry?
-- ask Give EC50 (Trace amine-associated receptor 1 (Homo sapiens, UniProt Q96RJ0)) of the following compound: `NCCc1ccc(Oc2ccc(O)cc2)c(I)c1`
-- reply 1.51
